This section presents compounds with their documented IC50 values.
System: amyloid-beta (1-42) peptide
PROCEDURE_DETAILS: ELISA assay of amyloid-beta (1-42) in conditioned media of 2B7 cells
Assay type: cell-based
COND: 5 h, Aβ-42, 2B7 cells, 5 hours; read-out: IC50 range
Description: Compounds of the present invention, and extracts comprising said compounds, may be assayed as inhibitors of amyloid-beta (1-42) peptide in vitro or in vivo. Such assay methods are described in detail in U.S. Pat. No. 6,649,196, the entirety of which is hereby incorporated herein by reference. […] Final Wash and Readout: • Aspirated wells, wash 5× with 250 μL of PBS-T (2 minutes each wash at 30 RPM); • Added 100 μL TMB for 20 minutes; • Added 100 μL of 1M H3PO4; and • Read at 450 nm. […]

Worked cases, IC50 given:
| COMPOUND | IC50 |
| --- | --- |
| CC(=O)O[C@@H]([C@H]1C[C@@H](C)C2=C(O1)[C@H](O)[C@@]1(C)[C@@H]3CC[C@H]4C(C)(C)[C@@H](O)CC[C@@]45C[C@@]35CC[C@]21C)C(C)(C)O | < 10000 nM |
| CCC(=O)OC(C)(C)[C@H]1OC23O[C@@H]1C[C@@H](C)[C@@H]2[C@@]1(C)CC[C@@]24C[C@@]25CC[C@H](O[C@@H]2OC[C@@H](O)[C@H](O)[C@H]2O)C(C)(C)[C@@H]5CC[C@H]4[C@]1(C)[C@H]3O | 1000 to 10000 nM |
| CC(=O)O[C@@H]([C@H]1C[C@@H](C)C2C(O1)[C@H](O)[C@@]1(C)[C@@H]3CC[C@H]4C(C)(C)[C@@H](OC(CO)OCCO)CC[C@@]45C[C@@]35CC[C@]21C)C(C)(C)O (stereo partly drawn) | ≤ 1000 nM |
| C[C@@H]1C[C@H]([C@@H]2OC(=O)OC2(C)C)OC2C(O)[C@@]3(C)[C@@H]4CC[C@H]5C(C)(C)[C@@H](O[C@@H]6OC[C@@H](O)[C@H](O)[C@H]6O)CC[C@@]56C[C@@]46CC[C@]3(C)C21 (stereo partly drawn) | 1000 to 10000 nM |
| CC(=O)O[C@@H]([C@H]1C[C@@H](C)C2C(O1)[C@H](O)[C@@]1(C)[C@@H]3CC[C@H]4C(C)(C)[C@@H](OC5CN(CCN6CCOCC6)CCO5)CC[C@@]45C[C@@]35CC[C@]21C)C(C)(C)O (stereo partly drawn) | ≤ 1000 nM |
| CC(=O)O[C@@H]([C@H]1C[C@@H](C)C2C(O1)[C@H](O)[C@@]1(C)[C@@H]3CC[C@H]4C(C)(C)[C@@H](OCC(=O)O)CC[C@@]45C[C@@]35CC[C@]21C)C(C)(C)O (stereo partly drawn) | 1000 to 10000 nM |
| CC(=O)O[C@@H]([C@H]1C[C@@H](C)[C@H]2[C@H](O1)[C@H](O)[C@@]1(C)[C@@H]3CC[C@H]4C(C)(C)C(OC(=O)c5ccncc5)CC[C@@]45C[C@@]35CC[C@]21C)C(C)(C)O (stereo partly drawn) | ≤ 1000 nM |
| CC(=O)O[C@@H]([C@H]1C[C@@H](C)C2C(O1)[C@H](O)[C@@]1(C)[C@@H]3CC[C@H]4C(C)(C)[C@@H](OC5CN(CC(N)=O)CCO5)CC[C@@]45C[C@@]35CC[C@]21C)C(C)(C)O (stereo partly drawn) [drawing 942] | ≤ 1000 nM |

Okay, next one:
May I ask what IC50 has been recorded for CN[C@H]1CC[C@]23C[C@]24CC[C@]2(C)C5C(O[C@@H]([C@H](OC(C)=O)C(C)(C)O)C[C@H]5C)[C@H](O)[C@@]2(C)[C@@H]4CC[C@H]3C1(C)C (stereo partly drawn) ?
1000 to 10000 nM

---

Here, each record is paired with measured pIC50 data.
Tested on: Aβ-38
PROCEDURE_DETAILS: MSD Human (6E10) Ab 3-PLEX elisa, conditioned media of 2B7 cells: Aβ-38
Assay type: cell-based
COND: Homo sapiens; Aβ-38 (superscript a); read-out: 50% reduction value
pIC50: −log10 of the molar value.

# count of solved cases: 3
| COMPOUND | RECORDED_VALUE |
| --- | --- |
| CNC(=O)OC1CC[C@]23C[C@]24CC[C@]2(C)[C@@H]5C(OC([C@H](OC(=O)N6CCC6)C(C)C)C[C@H]5C)[C@H](O)[C@@]2(C)C4CC[C@H]3C1(C)C (stereo partly shown) | > 6.00 |
| CC(=O)O[C@@H]([C@H]1C[C@@H](C)C2C(O1)C(=O)[C@@]1(C)[C@@H]3CC[C@H]4C(C)(C)[C@@H](O[C@@H]5OC[C@@H](O)[C@H](O)[C@H]5O)CC[C@@]45C[C@@]35CC[C@]21C)C(C)(C)O (stereo partly shown) [drawing 1230] | 5.00 to 6.00 |
| C[C@@H]1C[C@H]([C@H](OC(N)=O)C(C)(C)O)O[C@H]2[C@H]1[C@@]1(C)CC[C@@]34C[C@@]35CC[C@H](O[C@H]3CN(C6COC6)CCO3)C(C)(C)[C@@H]5CCC4[C@]1(C)[C@H]2O (stereo partly shown) | 5.00 to 6.00 |

Now consider the entry below.
pIC50 for CC(=O)O[C@@H]([C@H]1C[C@@H](C)[C@H]2[C@H](O1)C(=O)[C@@]1(C)[C@@H]3CC[C@H]4C(C)(C)[C@@H](O[C@H]5CN(CC(N)=O)CCO5)CC[C@@]45C[C@@]35CC[C@]21C)C(C)(C)O [drawing 1202] ?
> 6.00

---

Test system: amyloid-beta (1-42) peptide
PROCEDURE_DETAILS: ELISA assay of amyloid-beta (1-42) in conditioned media of 2B7 cells
Assay type: cell-based
COND: 5 h, Aβ-42, 2B7 cells, 5 hours; read-out: IC50 range
REPORTED_PROPERTY: IC50

// known answers, use as guide
| COMPOUND | RECORDED_VALUE |
| --- | --- |
| CO[C@@H]([C@H]1C[C@@H](C)C2C(O1)[C@H](O)[C@@]1(C)[C@@H]3CC[C@H]4C(C)(C)[C@@H](O[C@@H]5OC[C@@H](O)[C@H](O)[C@H]5O)CC[C@@]45C[C@@]35CC[C@]21C)C(C)(C)O (stereo partly drawn) | 1000 to 10000 nM |
| CC(=O)O[C@@H]([C@H]1C[C@@H](C)[C@H]2[C@H](O1)[C@H](O)[C@@]1(C)[C@@H]3CC[C@H]4C(C)(C)[C@@H](O[C@H]5CN(CCO)CCO5)CC[C@@]45C[C@@]35CC[C@]21C)C(C)(C)O | ≤ 1000 nM |
| CC(=O)O[C@@H]([C@H]1C[C@@H](C)C2C(O1)[C@H](O)[C@@]1(C)[C@@H]3CC[C@H]4C(C)(C)[C@H](NO)CC[C@@]45C[C@@]35CC[C@]21C)C(C)(C)O (stereo partly drawn) | 1000 to 10000 nM |
| COCCN1CCOC(O[C@H]2CC[C@]34C[C@]35CC[C@]3(C)C6C(O[C@@H]([C@H](OC(C)=O)C(C)(C)O)C[C@H]6C)[C@H](O)[C@@]3(C)[C@@H]5CC[C@H]4C2(C)C)C1 (stereo partly drawn) | ≤ 1000 nM |
| C[C@@H]1C[C@H](C(=O)C(C)(C)O)OC2C1[C@@]1(C)CC[C@@]34C[C@@]35CC[C@H](O[C@@H]3OC[C@@H](O)[C@H](O)[C@H]3O)C(C)(C)[C@@H]5CC[C@H]4[C@]1(C)[C@H]2O (stereo partly drawn) | > 10000 nM |

What value of measured IC50 is listed for `CC(=O)O[C@@H]([C@H]1C[C@@H](C)[C@H]2[C@H](O1)[C@H](O)[C@@]1(C)[C@@H]3CC[C@H]4C(C)(C)[C@@H](O[C@H]5CN(CCN(C)C)CCO5)CC[C@@]45C[C@@]35CC[C@]21C)C(C)(C)O` ?
≤ 1000 nM

Could you share which IC50 value was measured for `CC(=O)O[C@@H]([C@H]1C[C@@H](C)[C@H]2[C@H](O1)[C@H](O)[C@@]1(C)[C@@H]3CC[C@H]4C(C)(C)[C@@H](OC(=O)Cc5ccccn5)CC[C@@]45C[C@@]35CC[C@]21C)C(C)(C)O` ?
≤ 1000 nM

Which IC50 value belongs to CCC(=O)O[C@@H]([C@H]1C[C@@H](C)C2C(O1)C(O)[C@@]1(C)[C@@H]3CC[C@H]4C(C)(C)[C@@H](O[C@@H]5OC[C@@H](O)[C@H](O)[C@H]5O)CC[C@@]45C[C@@]35CC[C@]21C)C(C)(C)O (stereo partly drawn) ?
≤ 1000 nM

Entry under review: CC(=O)O[C@@H]([C@H]1C[C@@H](C)C2C(O1)[C@H](O)[C@@]1(C)[C@@H]3CC[C@H]4C(C)(C)[C@@H](O[C@H]5CN(O)CCO5)CC[C@@]45C[C@@]35CC[C@]21C)C(C)(C)O (stereo partly drawn) . Reported IC50?
≤ 1000 nM
